- TGT: T1, FSTL1 (Homo sapiens, UniProt Q12841)
- T1 sequence (Q12841 21-308): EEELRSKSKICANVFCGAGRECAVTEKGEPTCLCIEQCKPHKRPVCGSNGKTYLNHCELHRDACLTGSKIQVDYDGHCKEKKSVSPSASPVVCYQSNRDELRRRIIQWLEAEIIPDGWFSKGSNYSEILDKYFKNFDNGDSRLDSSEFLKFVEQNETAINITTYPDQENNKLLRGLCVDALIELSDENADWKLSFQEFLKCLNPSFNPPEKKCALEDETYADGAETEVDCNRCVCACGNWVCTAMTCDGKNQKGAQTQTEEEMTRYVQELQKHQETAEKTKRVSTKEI
- TEST SUMMARY: Affinity of mouse chimeric antibodies for human FSTL1, Biacore T-200 (Example 33)
- Assay type: binding
ENDPOINT: affinity in an assay system using surface plasmon resonance

molecule="#33: chicken-mouse chimeric anti-FSTL1 antibody clone; variable regions SEQ ID NO: 823 (light), 825 (heavy) (antibody, V domains shown, mouse constant regions) VH: AVTLDESGGGLQTPGGGLSLVCKASGFTFSSFNMNWVRQAPGKGLEYVAEISGTGSSTYYGSAVKGRATISRDNGQSTVRLQLNNLRAEDTATYFCARGDGAYSIDAWGHGTEVIVSS VL: ASTQPSSVSANPGETVEITCSGDSSYYGWFQQKSPGSAPVTVIYDNTNRPSDIPSRFSGSKSGSTATLTITGVRAEDEAVYYCGGYDSSTYDGIFGAGTTLTVL" test_value="strong affinity"
molecule="#10: chicken-mouse chimeric anti-FSTL1 antibody clone; variable regions SEQ ID NO: 811 (light), 813 (heavy) (antibody, V domains shown, mouse constant regions) VH: AVTLDESGGGLQTPGGALSLVCKASGFFFFRIYDMGWVRQAPGKGLEWVAGIDDYGRYTGYGSAVKGRATISRDNGQSTVRLQLNNLRAEDTGTYYCARGAGTGCNSAGCGAYAGSIDAWGHGTEVIVSS VL: ASTQPSSVSANPGETVKLTCSGGGSRYGWYQQKSPGSAPVTVIYYNDKRPSDIPSRFSGSKSGSTATLTITGVQAEDEAVYFCGGYDGSRDAGIFGAGTTLTVL" test_value="strong affinity"
